Ref: ChEMBL document CHEMBL3414539

# Assay Notes: Stability assessed as cis-trans isomerization equilibrium by mesuring remaining compound level at 1.5 x 10^-2 M exposed to UV-visible light irradiation after 1.5 hrs by LC-HRMS method
# Assay type: physicochemical
# Condition Context: read-out: Stability
I'd appreciate it if you could supply remaining at 1.5 h, 15000 µM values for the items below.

Your task in this section: give remaining at 1.5 h, 15000 µM for each listed record.
1. COc1ccc(/C=C2\c3cc(OC)c(OC)c(OC)c3CC[C@@H]2O)cc1
2. COc1ccc(/C=C2\c3cc(OC)c(OC)c(OC)c3CC[C@H]2O)cc1
3. COc1ccc2c(c1)CC[C@@H](O)/C2=C/c1cc(OC)c(OC)c(OC)c1
4. COc1ccc2c(c1)CC[C@H](O)/C2=C/c1cc(OC)c(OC)c(OC)c1

99.4%
99.1%
99.2%
98.9%

Your task in this section: give remaining at 1.5 h, 15000 µM for each listed record.
1. COc1ccc(/C=C\c2cc(OC)c(OC)c(OC)c2)cc1O
2. COc1ccc2c(c1)CCC(=O)/C2=C/c1cc(OC)c(OC)c(OC)c1

1. 99.1%
2. 52.8%
